B1: ZMYND11 (parent)
chain: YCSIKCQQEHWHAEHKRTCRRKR

Variants of: B1
procedure.details: protein stability index of a GFP-peptide fusion (GPS, HEK-293T) (PSI 1-6); higher = more stable;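 further: lentivirally expressed fusions sorted by FACS into six bins by GFP to DsRed ratio, PSI derived from sequencing read proportions per bin multiplied by bin number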
experimental.parameters: c terminus: native
measured.attribute: protein stability index

GET /values?readout=protein stability index&item= YCSIKRQQEHWHAEHKRTCRRKR 1.56

GET /values?readout=protein stability index&item= YCSIKCQQEHQHAEHKRTCRRKR 4.24

GET /values?readout=protein stability index&item= YCSIKCQQEHWSAEHKRTCRRKR 2.22

GET /values?readout=protein stability index&item= YCSIKCQQEHWHEEHKRTCRRKR 2.16

GET /values?readout=protein stability index&item= YCSIKCQQEHWHAEHKNTCRRKR 2.28

GET /values?readout=protein stability index&item= YCSIKCQQEHWHAEHKRTQRRKR 2.19

GET /values?readout=protein stability index&item= YCSIKCQQEDWHAEHKRTCRRKR 1.96

GET /values?readout=protein stability index&item= YCSIKCQQEHWHAEHKRACRRKR 2.36

GET /values?readout=protein stability index&item= YCSIKCQQEPWHAEHKRTCRRKR 2.1

GET /values?readout=protein stability index&item= YCSIKCQQEHWHAEHKRTCRRRR 1.79

GET /values?readout=protein stability index&item= YCSNKCQQEHWHAEHKRTCRRKR 2.9

GET /values?readout=protein stability index&item= YCSIKCQQEHWHAKHKRTCRRKR 2.92

GET /values?readout=protein stability index&item= YCSIKCQQEHWHAEHKRTCCRKR 2

GET /values?readout=protein stability index&item= YCSIKHQQEHWHAEHKRTCRRKR 2.9

GET /values?readout=protein stability index&item= YCSIKCQQEHWMAEHKRTCRRKR 1.31

GET /values?readout=protein stability index&item= YCSIKCQQEHWHAETKRTCRRKR 2.41

GET /values?readout=protein stability index&item= YCSITCQQEHWHAEHKRTCRRKR 2.6

GET /values?readout=protein stability index&item= YCSIKCQQEHWHAEHKRTCRSKR 3.06

GET /values?readout=protein stability index&item= YCSIKCQQEHIHAEHKRTCRRKR 3.03

GET /values?readout=protein stability index&item= YCSIPCQQEHWHAEHKRTCRRKR 1.75

GET /values?readout=protein stability index&item= YDSIKCQQEHWHAEHKRTCRRKR 3.76

GET /values?readout=protein stability index&item= YCSIFCQQEHWHAEHKRTCRRKR 1.67

GET /values?readout=protein stability index&item= HCSIKCQQEHWHAEHKRTCRRKR 3.9

GET /values?readout=protein stability index&item= YCSIKCQQEHWVAEHKRTCRRKR 1.54

GET /values?readout=protein stability index&item= YCSLKCQQEHWHAEHKRTCRRKR 2.14

GET /values?readout=protein stability index&item= YCSIKCQQEHWHDEHKRTCRRKR 3.16

GET /values?readout=protein stability index&item= RCSIKCQQEHWHAEHKRTCRRKR 3.62

GET /values?readout=protein stability index&item= YCSIKCQQEHWHAEHKRTCRRER 2.41

GET /values?readout=protein stability index&item= YCSIKCQQEHAHAEHKRTCRRKR 2.98

GET /values?readout=protein stability index&item= YCSIKCQQRHWHAEHKRTCRRKR 2.6

GET /values?readout=protein stability index&item= YCSIKCQQEHWHAEHKRTNRRKR 2.21

GET /values?readout=protein stability index&item= YCSIKCQQEHWHAEHKRTCRRMR 1.55

GET /values?readout=protein stability index&item= YCSIKCQQEHWHAEHKRTCRGKR 2.84

GET /values?readout=protein stability index&item= YCSIKCQQEHWHAEHKRTCRRYR 1.53

GET /values?readout=protein stability index&item= SCSIKCQQEHWHAEHKRTCRRKR 4.09

GET /values?readout=protein stability index&item= YCSIKCQQEHWHAEHKRTCRRHR 1.74

GET /values?readout=protein stability index&item= YCWIKCQQEHWHAEHKRTCRRKR 1.51

GET /values?readout=protein stability index&item= YCSIKCQQEHWHAEHKVTCRRKR 2.55

GET /values?readout=protein stability index&item= YCSIKCQQEMWHAEHKRTCRRKR 1.4

GET /values?readout=protein stability index&item= YCSIKCQQEHWHAEHKRTCREKR 2.43

GET /values?readout=protein stability index&item= YCSIKCQQEHWHAEHWRTCRRKR 1.74

GET /values?readout=protein stability index&item= YCSIKCQQEHWHAEHKRTCLRKR 2.17

GET /values?readout=protein stability index&item= YCSIKCQQEHWHAEHKITCRRKR 2.58

GET /values?readout=protein stability index&item= FCSIKCQQEHWHAEHKRTCRRKR 1.67

GET /values?readout=protein stability index&item= YCSIKCQQEHWHAEHKRTCRRFR 2.13

GET /values?readout=protein stability index&item= YCSIKCQQEHWHAEHKRKCRRKR 2.84
